Reported growth values are given for each entry in this list.
tested on: SF-539 CNS; assay: NCI-60 one-dose screen, 48 h (100 = growth as untreated, 0 = no growth, -100 = all killed); conditions: 10 µM unless noted
About 83,000 compounds went through this panel and 20% of them were active in at least one assay; those are over-represented in the sample as a whole.
Reply numerically in %, unit not repeated.

# structureAsSmiles, unitsSymbol, testResult
records = [
    ("CC(=O)[C@H]1CC[C@H]2[C@@H]3CC[C@H]4CC=CC[C@]4(C)[C@H]3CC[C@]12C", "%", 91.6),
    ("c1ccc2c(Cc3csc4ccccc34)csc2c1", "%", 91.4),
]

# evaluate next
Input line: growth lookup needed for "Oc1[nH]c2ccc(Cl)cc2c1/C=c1/ccc2c(c1)N=C(c1ccc(F)cc1)N=2" , thanks.
Output line: 92.2

---

test system: MCF7 breast; experiment: NCI-60 one-dose screen, 48 h (100 = growth as untreated, 0 = no growth, -100 = all killed); settings: 10 µM unless noted
This is part of a sample that, as a whole, favours compounds with a hit. Of some 83,000 tested, about 20% had one in any assay.
Quick rule: growth of at least 40% means 1, below that means -1.

Reference set, count: 5
# compound, group
rows = [
    ("COc1cc(Cn2c(-c3ccccc3)cc3c2-c2oncc2CC3)cc(OC)c1OC", -1),
    ("COc1ccc(-c2cnc3ccnn3c2-c2cc(OC)c(OC)c(OC)c2)cc1", -1),
    ("C=CCn1c(SCC(=O)Nc2ccc(C(=O)/C=C/c3ccc(Cl)cc3)cc2)nnc1-c1ccc(Cl)cc1", 1),
    ("CCOC(=O)c1ccc(NCCC(=O)O)cc1", 1),
    ("COc1c(B(O)O)cccc1-c1nc2c(F)cc3n[nH]c(C)c3c2c2c1CCCC2", -1),
]

Input line: Assess whether reported growth for "O=C(Nc1ccc2[nH]c3ccccc3c2c1)c1ccccc1Cl" sits at 40% or higher.
Output line: -1

Input line: Item: CC1CN(CCCOC(=O)Nc2ccc(Cl)cc2)CCN1C(C)(C)C (stereo not drawn)
Output line: 1

Input line: Another compound to check: "CC(C)OC(=O)c1ccc([N+](=O)[O-])cc1"
Output line: 1

Input line: Now consider "COc1cc(OC)cc(-c2n/c(=C\c3c(O)[nH]c4ccc(Cl)cc34)cc3c2=Nc2ccccc2-3)c1" and answer again.
Output line: -1

Input line: Similarly, "CCCCCCCCCCCC1=NC(C)(C)CN1C(C)(C)CO" ?
Output line: -1

Input line: # iterate: "CCCCN(CCCC)CCCN=c1nc2c(c(N)n1-c1ccccc1)c(=S)n(-c1ccccc1)c(=S)n2-c1ccccc1"
Output line: -1

Input line: // same read-out, input: "CN(C)c1ccc(/C=C(\C#N)c2nc3ccccc3n2C)cc1"
Output line: -1

Input line: For "O=C(CCc1nc2sc3c(c2c(=O)[nH]1)CCC3)NCc1cn(-c2ccccc2)nc1-c1ccccc1" then?
Output line: -1

Input line: Follow-up item: CCN(CC)CCCC(C)Nc1cnc(C(=O)Nc2cccc3ccc(OC)nc23)cn1 (stereo not drawn)
Output line: -1

Input line: Now this one: "O=c1cc(-c2ccc3c(c2)OCCO3)oc2cc(Cl)ccc12"
Output line: 1

Input line: Also CCCOC(=O)C1c2cc3c(cc2CC(C)C1C(=O)OCCC)OCO3 (stereo not drawn) ?
Output line: 1

Input line: Could you do the same for "COc1cccc(NC(=O)c2c(-c3ccccc3)c(-c3ccccc3)n[nH]c2=O)c1" , please?
Output line: 1

Input line: Now the same for "COc1ccc2[nH]c(O)c(/C=c3/ccc4c(c3)N=C(c3ccc(F)cc3)N=4)c2c1"
Output line: 1

Input line: Check "COc1ccc2cc(-c3nc(C)c(C(C)=O)c(-c4ccc(C)cc4)n3)ccc2c1" too.
Output line: 1

Input line: Proceed to "COc1ccc(/C=C/C(=O)c2ccc(NC(=O)CSc3nnc(-c4ccc(Cl)cc4)n3-c3ccccc3)cc2)cc1"
Output line: 1

Input line: Query "Cc1cc(C)c([O-])c(CN(C)CCN(C)Cc2cc(C)cc(C)c2[O-])c1.O=C([O-])c1cccc(C(=O)[O-])n1.[Ti+4]" next
Output line: -1

Input line: Record: "COc1ccc(Nc2ncccc2C(=O)NCc2cn(Cc3cc(OC)cc(OC)c3)nn2)cc1"
Output line: 1

Reference source: PubChem BioAssay (NCI)
